Collected Inhibitory activity on platelet aggregation, PAF values appear next to each entry.
System: Rabbit platelet rich plasma (PRP)
Test: Inhibitory activity on platelet aggregation in rabbit platelet rich plasma (light transmission)
Assay type: cell-based
Conditions: compound 3x10^-6 (unit not given); Platelet activating factor (PAF) 10 mg/ml; added to PRP 30 minutes before agent
MEASUREMENT_TYPE: Inhibitory activity on platelet aggregation, PAF

MOLECULE | REPORTED_VALUE
COC(=O)C1=C(C)NC(C)=C(C(=O)OC/C=C(\C)c2ccc(Cn3ccnc3)cc2)C1c1cccc([N+](=O)[O-])c1 (centres unmarked) | 0%
COC(=O)C1=C(C)NC(C)=C(C(=O)OC/C=C/c2ccc(Cn3ccnc3)cc2)C1c1ccccc1C#N (centres unmarked) | 48.6%
COC(=O)C1=C(C)NC(C)=C(C(=O)OC/C=C/c2ccc(C(C)n3ccnc3)cc2)C1c1cccc([N+](=O)[O-])c1 (centres unmarked) | 18.3%
COC(=O)C1=C(C)NC(C)=C(C(=O)OC/C(C)=C/c2ccc(Cn3ccnc3)cc2)C1c1cccc([N+](=O)[O-])c1 (centres unmarked) | 28.9%
COC(=O)C1=C(C)NC(C)=C(C(=O)OC/C=C/c2ccc(-n3ccnc3)cc2)C1c1cccc([N+](=O)[O-])c1 (centres unmarked) | 0%
COC(=O)C1=C(C)NC(C)=C(C(=O)OC/C(F)=C/c2ccc(Cn3ccnc3)cc2)C1c1cccc([N+](=O)[O-])c1 (centres unmarked) | 49.6%
COC(=O)C1=C(C)NC(C)=C(C(=O)OC/C=C/c2ccc(Cn3ccnc3)cc2)C1c1cccnc1 (centres unmarked) | 0%
COC(=O)C1=C(C)NC(C)=C(C(=O)OC/C=C/c2ccc(Cn3cnnn3)cc2)C1c1cccc([N+](=O)[O-])c1 (centres unmarked) | 31.1%

----------
Test system: Rabbit platelet rich plasma (PRP)
Experiment: Inhibitory activity on platelet aggregation in rabbit platelet rich plasma (light transmission)
Assay type: cell-based
Conditions: compound 10^-4 (unit not given); Adenosine diphosphate (ADP) 5 mM; added to PRP 30 minutes before agent
Hi, to clarify the labels: fulfilled covers Inhibitory activity on platelet aggregation, ADP from 6% upward, not fulfilled covers anything below 6%.

COMPOUND | TARGET_DESC | CATEGORY_LABEL
COC(=O)C1=C(C)NC(C)=C(C(=O)OC/C=C/c2cccc(Cn3ccnc3)n2)C1c1cccc([N+](=O)[O-])c1 (centres unmarked) [Example 25] | Rabbit platelet rich plasma (PRP) | not fulfilled
COC(=O)C1=C(C)NC(C)=C(C(=O)OC/C=C(\C)c2ccc(Cn3ccnc3)cc2)C1c1cccc([N+](=O)[O-])c1 (centres unmarked) [Example 6] | Rabbit platelet rich plasma (PRP) | fulfilled
CCOC(=O)C1=C(C)NC(C)=C(C(=O)OC/C=C/c2ccc(Cn3ccnc3)cc2)C1c1cccc([N+](=O)[O-])c1 (centres unmarked) [Example 7] | Rabbit platelet rich plasma (PRP) | not fulfilled
COC(=O)C1=C(C)NC(C)=C(C(=O)OC/C=C/c2ccc(Cc3cccnc3)cc2)C1c1cccc([N+](=O)[O-])c1 (centres unmarked) [Example 2] | Rabbit platelet rich plasma (PRP) | not fulfilled
COC(=O)C1=C(C)NC(C)=C(C(=O)OC/C=C/c2ccc(Cn3ccnc3)s2)C1c1cccc([N+](=O)[O-])c1 (centres unmarked) [Example 5] | Rabbit platelet rich plasma (PRP) | fulfilled
COC(=O)C1=C(C)NC(C)=C(C(=O)OC/C=C/c2ccccc2Cn2ccnc2)C1c1cccc([N+](=O)[O-])c1 (centres unmarked) [Example 20] | Rabbit platelet rich plasma (PRP) | fulfilled
COC(=O)C1=C(C)NC(C)=C(C(=O)OC/C=C/c2cccc(Cn3ccnc3)c2)C1c1cccc([N+](=O)[O-])c1 (centres unmarked) [Example 21] | Rabbit platelet rich plasma (PRP) | fulfilled
COCCOC(=O)C1=C(C)NC(C)=C(C(=O)OC/C=C/c2ccc(Cn3ccnc3)cc2)C1c1cccc([N+](=O)[O-])c1 (centres unmarked) [Example 16] | Rabbit platelet rich plasma (PRP) | fulfilled
C/C=C/C=C/COC(=O)C1=C(C)NC(C)=C(C(=O)OC/C=C/c2ccc(Cn3ccnc3)cc2)C1c1cccc([N+](=O)[O-])c1 (centres unmarked) [Example 15] | Rabbit platelet rich plasma (PRP) | fulfilled
COC(=O)C1=C(C)NC(C)=C(C(=O)OC/C=C/c2ccc(Cn3ccnc3)cc2)C1c1ccnc2ccccc12 (centres unmarked) [Example 23] | Rabbit platelet rich plasma (PRP) | not fulfilled
COC(=O)C1=C(C)NC(C)=C(C(=O)OC/C(F)=C/c2ccc(Cn3ccnc3)cc2)C1c1cccc([N+](=O)[O-])c1 (centres unmarked) [Example 13] | Rabbit platelet rich plasma (PRP) | fulfilled
